Values compiled from patent US20040023978A1.

measurement description: Solubility at room temperature (HPLC isocratic method)
Type: physicochemical
condition set: water (text b274); read-out: solubility in water
readout type: solubility
Please state the number and follow it with the unit.

Recall and state the measured solubility for CNC(=O)N1CCN(Cc2ccnc(Nc3ncc(C#N)s3)c2)CC1.CS(=O)(=O)O [mesylate salt (Form A)] .
4700 µg/mL

###

measurement description: Solubility at room temperature (HPLC isocratic method)
Assay type: physicochemical
condition set: thermodynamic from solid; water, room temperature (Table I); read-out: Solubility
readout type: solubility (µg/mL)
// note: answer is a bare numeric in µg/mL

Indicate the recorded solubility value for this molecule: CNC(=O)N1CCN(Cc2ccnc(Nc3ncc(C#N)s3)c2)CC1.CS(=O)(=O)O [mesylate salt (Form A)]
6650
